- testName: endothelial E-selectin expression blockers – imaging, HUVEC, immunofluorescence, MLSMR starter and 10KST1 sets, primary screen (AID 487);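 note: 100% = median nuclei count of all wells on the same plate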
- assayContext: HUVEC TNFalpha-induced E-selectin immunofluorescence imaging, at 2 µM; measured here: cell number, toxicity
I'd appreciate it if you could supply nuclei count values for the items below.

Need nuclei count of O=C(c1ccc(-c2cccc(C(F)(F)F)c2)o1)N1CCOCC1 , thanks. 99.9%

// nuclei count lookup, key: OCCN1CCN(CC(O)COc2ccc3ccccc3c2)CC1 (stereo unspecified) 106%

Would you kindly share the measured nuclei count for COc1ccc(OC)c(S(=O)(=O)Nc2ccccc2C(=O)O)c1 ? 85.9%

Query: nuclei count; subject: N#CCc1nc(CSc2nc3ccccc3s2)cs1 114%

Which value of nuclei count has been reported for COc1cc(C2Oc3cc(C4Oc5cc(O)cc(O)c5C(=O)C4O)ccc3OC2CO)ccc1O (stereo unspecified) in the records? 118%

Look at this compound and give its reported nuclei count. CCN1CCCC1CNCc1ccc(Cl)cc1Cl (stereo unspecified) 152%

Which nuclei count value is on record for Cc1cccc(N2CCN(S(=O)(=O)c3ccc4c(c3)CCC(=O)N4)CC2C)c1 (stereo unspecified) ? 126%

Given the entry COc1ccccc1NC1=NC2(CCCC2)N=C(N)N1 , report its measured nuclei count. 124%

Entry under review: O=C(NC1CCCCC1)[C@H](O)[C@@H](O)C(=O)NC1CCCCC1 . Reported nuclei count? 140%

// nuclei count lookup, key: CCN1CCN(c2c(Cl)cccc2NC(=O)c2ccc3c(c2)OCCO3)CC1 216%

Name the reported nuclei count value associated with the compound CCc1ccc(NS(=O)(=O)c2ccc3[nH]cc(C(=O)N4CCCCC4)c(=O)c3c2)cc1 81.2%
